- assay_system: β-conglutin (Lupinus albus (white lupin)?)
- Sequence: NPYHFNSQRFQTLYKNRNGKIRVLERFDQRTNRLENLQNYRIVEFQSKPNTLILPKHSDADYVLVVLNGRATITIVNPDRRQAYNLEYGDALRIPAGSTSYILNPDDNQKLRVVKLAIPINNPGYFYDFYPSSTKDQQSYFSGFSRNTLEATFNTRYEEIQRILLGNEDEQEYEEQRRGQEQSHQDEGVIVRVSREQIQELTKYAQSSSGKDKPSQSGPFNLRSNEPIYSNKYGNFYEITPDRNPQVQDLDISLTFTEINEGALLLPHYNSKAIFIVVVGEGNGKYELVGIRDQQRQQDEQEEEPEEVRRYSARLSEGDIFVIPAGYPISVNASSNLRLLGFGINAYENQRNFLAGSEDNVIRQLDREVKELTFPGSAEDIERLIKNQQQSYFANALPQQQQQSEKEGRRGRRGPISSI
- measurement_description: BLI
- study_conditions: 1:1 model; dA outside the 5' primer region (nt 24-94) replaced by indole-modified dA (dAEIn); Binding buffer, salt, pH and temperature not given in the …
measurement_name: Kd (nM)
Provide only the numeric value, understood in nM.

Query: API: value(readout=Kd, system=β-conglutin (Lupinus albus (white lupin)?)) for record AGCTCCAGAAGATAAATTACAGGCCAAGATCTCGCGAGTTCCCAACAGGGCAGAGAGATGCCCGACACCAGTGCAACTAGGATACTATGACCCC [HB8]
Reply: 0.9

----------
Please go through the items and note down their pKd.
- assay_system: β-conglutin (Lupinus albus (white lupin)?) (UniProt Q53HY0)
- Sequence: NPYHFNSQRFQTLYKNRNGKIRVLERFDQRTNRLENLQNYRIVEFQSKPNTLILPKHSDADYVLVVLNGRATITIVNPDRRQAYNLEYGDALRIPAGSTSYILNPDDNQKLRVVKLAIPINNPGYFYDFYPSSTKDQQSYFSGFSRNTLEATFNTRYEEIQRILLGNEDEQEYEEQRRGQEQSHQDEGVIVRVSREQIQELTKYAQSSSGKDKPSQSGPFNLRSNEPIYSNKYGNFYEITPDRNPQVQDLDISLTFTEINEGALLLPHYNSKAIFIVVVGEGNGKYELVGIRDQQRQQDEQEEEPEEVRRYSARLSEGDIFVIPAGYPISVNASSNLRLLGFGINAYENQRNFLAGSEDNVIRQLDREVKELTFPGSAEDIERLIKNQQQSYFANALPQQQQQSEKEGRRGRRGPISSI
- measurement_description: MST
- study_conditions: all dA = dAEIn; 5' dC carries Cy5; Binding buffer, salt, pH and temperature not given in the material
Remember, pKd is on a log scale: it is -log10 of the molar concentration.

Query: Query pKd on β-conglutin (Lupinus albus (white lupin)?) (UniProt Q53HY0) for CCAAGATCTCGCGAGTTCCCAACAGGGCAGAGAGATGCCCGACACCAGTGCAACTAGGATACTATGACCCC [HB8_T2]
Reply: 6.59

Query: Similarly, CCAAGATCTCGCGAGTTCCCAACAGGGCAGAGAGATGCCCGACACCAGTG [HB8_T3] ?
Reply: 6.84
